TEST_METHOD_NOTES: Volume of distribution in rat
Format: ADME, organism-based
MEASUREMENT_PARAMETERS: in vivo, read-out: Vdss
EXPERIMENTAL_ENDPOINT: Vd

>>> obs_value("CC(C)C[C@@H]1C(=O)N[C@H](C2Cc3ccccc3C2)C(=O)N1[C@@H](C(=O)NC(C)(C)C)c1ccc(Cl)cc1")
"0.4 L/kg"
>>> obs_value("CC(C)C[C@@H]1C(=O)N[C@H](C2Cc3ccccc3C2)C(=O)N1[C@@H](C(=O)NC(C)C)c1ccc(N(C)C)cc1")
"2.3 L/kg"
>>> obs_value("CC(C)C[C@@H]1C(=O)N[C@H](C2Cc3ccccc3C2)C(=O)N1[C@@H](C(=O)NC(C)C)c1ccccc1")
"0.8 L/kg"
>>> obs_value("Cc1ccc([C@H](C(=O)NC(C)C)N2C(=O)[C@@H](C3Cc4ccccc4C3)NC(=O)[C@H]2CC(C)C)cc1")
"0.6 L/kg"
>>> obs_value("CC(C)C[C@@H]1C(=O)N[C@H](C2Cc3ccccc3C2)C(=O)N1[C@@H](C(=O)NC(C)C)c1ccc(S(C)(=O)=O)cc1")
"0.7 L/kg"
>>> obs_value("CC(C)C[C@@H]1C(=O)N[C@H](C2Cc3ccccc3C2)C(=O)N1[C@@H](C(=O)NC(C)C)c1ccc(F)cc1")
"0.8 L/kg"

###

TEST_METHOD_NOTES: Lipophilicity of the compound measured as CHI LogD by HPLC
Assay type: physicochemical
So basically: is chromatographic logD under 3? Then Yes. Not under? Then No.

>>> group_label("CC(C)C[C@@H]1C(=O)N[C@H](C2Cc3ccccc3C2)C(=O)N1[C@@H](C(=O)NC(C)(C)C)c1ccc(Cl)cc1")
"No"
>>> group_label("CC(C)C[C@@H]1C(=O)N[C@H](C2Cc3ccccc3C2)C(=O)N1[C@@H](C(=O)NC(C)C)c1ccc(F)cc1")
"No"
>>> group_label("CC(=O)Nc1ccc([C@H](C(=O)NC(C)(C)C)N2C(=O)[C@@H](C3Cc4ccccc4C3)NC(=O)[C@H]2CC(C)C)cc1")
"Yes"
>>> group_label("CC(C)C[C@@H]1C(=O)N[C@H](C2Cc3ccccc3C2)C(=O)N1[C@@H](C(=O)NC(C)C)c1ccc(C(F)(F)F)cc1")
"No"
>>> group_label("CC(C)C[C@@H]1C(=O)N[C@H](C2Cc3ccccc3C2)C(=O)N1[C@@H](C(=O)NC(C)(C)C)c1ccc(OC(F)(F)F)cc1")
"No"
>>> group_label("CC(C)C[C@@H]1C(=O)N[C@H](C2Cc3ccccc3C2)C(=O)N1[C@@H](C(=O)NC(C)C)c1ccc(N(C)C)cc1")
"No"
>>> group_label("CC(C)C[C@@H]1C(=O)N[C@H](C2Cc3ccccc3C2)C(=O)N1[C@@H](C(=O)NC(C)C)c1ccc(C(N)=O)cc1")
"Yes"
>>> group_label("CC(C)C[C@@H]1C(=O)N[C@H](C2Cc3ccccc3C2)C(=O)N1[C@@H](C(=O)NC(C)C)c1ccc(S(C)(=O)=O)cc1")
"Yes"
>>> group_label("CC(C)C[C@@H]1C(=O)N[C@H](C2Cc3ccccc3C2)C(=O)N1[C@@H](C(=O)NC(C)C)c1ccccc1")
"No"
>>> group_label("COc1ccc([C@H](C(=O)NC(C)(C)C)N2C(=O)[C@@H](C3Cc4ccccc4C3)NC(=O)[C@H]2CC(C)C)cc1")
"No"
>>> group_label("Cc1ccc([C@H](C(=O)NC(C)C)N2C(=O)[C@@H](C3Cc4ccccc4C3)NC(=O)[C@H]2CC(C)C)cc1")
"No"

###

TARGET_OR_SYSTEM: Vasopressin V1b receptor (Homo sapiens, UniProt P47901)
Sequence (P47901 whole entry): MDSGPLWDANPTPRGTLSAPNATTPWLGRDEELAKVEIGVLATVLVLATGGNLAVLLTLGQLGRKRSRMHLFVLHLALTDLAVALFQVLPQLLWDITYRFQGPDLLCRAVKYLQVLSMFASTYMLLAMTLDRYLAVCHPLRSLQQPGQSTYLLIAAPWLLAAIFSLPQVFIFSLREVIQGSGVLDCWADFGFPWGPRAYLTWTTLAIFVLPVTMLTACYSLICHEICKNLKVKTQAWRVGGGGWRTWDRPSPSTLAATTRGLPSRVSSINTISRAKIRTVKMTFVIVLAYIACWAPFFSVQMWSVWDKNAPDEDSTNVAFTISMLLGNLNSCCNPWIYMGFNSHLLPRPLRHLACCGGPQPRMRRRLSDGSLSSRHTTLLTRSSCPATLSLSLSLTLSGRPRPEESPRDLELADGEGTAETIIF
pKi: −log10 of the molar value.
EXPERIMENTAL_ENDPOINT: pKi

>>> obs_value("CC(C)C[C@@H]1C(=O)N[C@H](C2Cc3ccccc3C2)C(=O)N1[C@@H](C(=O)NC(C)C)c1ccc(N(C)C)cc1")
"< 4.30"

###

TEST_METHOD_NOTES: Per oral administration of 5 mg/Kg of dose required for measuring Area under concentration of curve in dog
Assay type: ADME, Canis lupus familiaris
MEASUREMENT_PARAMETERS: in vivo
EXPERIMENTAL_ENDPOINT: AUC (ng·h/mL)

>>> obs_value("CC(C)C[C@@H]1C(=O)N[C@H](C2Cc3ccccc3C2)C(=O)N1[C@@H](C(=O)NC(C)C)c1ccc(F)cc1F")
121

###

TEST_METHOD_NOTES: Half life in rat
Type: ADME
MEASUREMENT_PARAMETERS: in vivo
Label condition met when half-life >= 50 min; otherwise condition not met.

>>> group_label("CC(C)C[C@@H]1C(=O)N[C@H](C2Cc3ccccc3C2)C(=O)N1[C@@H](C(=O)NC(C)C)c1ccc(F)cc1")
"condition met"
>>> group_label("CC(C)C[C@@H]1C(=O)N[C@H](C2Cc3ccccc3C2)C(=O)N1[C@@H](C(=O)NC(C)C)c1ccccc1")
"condition met"
>>> group_label("Cc1ccc([C@H](C(=O)NC(C)C)N2C(=O)[C@@H](C3Cc4ccccc4C3)NC(=O)[C@H]2CC(C)C)cc1")
"condition not met"
>>> group_label("CC(C)C[C@@H]1C(=O)N[C@H](C2Cc3ccccc3C2)C(=O)N1[C@@H](C(=O)NC(C)C)c1ccc(S(C)(=O)=O)cc1")
"condition met"
>>> group_label("CC(C)C[C@@H]1C(=O)N[C@H](C2Cc3ccccc3C2)C(=O)N1[C@@H](C(=O)NC(C)C)c1ccc(N(C)C)cc1")
"condition met"
>>> group_label("CC(C)C[C@@H]1C(=O)N[C@H](C2Cc3ccccc3C2)C(=O)N1[C@@H](C(=O)NC(C)(C)C)c1ccc(Cl)cc1")
"condition not met"

###

TEST_METHOD_NOTES: Per oral administration of 5 mg/Kg of dose required for measuring Area under concentration of curve in rat
Format: ADME
MEASUREMENT_PARAMETERS: in vivo
EXPERIMENTAL_ENDPOINT: AUC (ng·h/mL)

>>> obs_value("CC(C)C[C@@H]1C(=O)N[C@H](C2Cc3ccccc3C2)C(=O)N1[C@@H](C(=O)NC(C)(C)C)c1ccc(Cl)cc1")
95
>>> obs_value("CC(C)C[C@@H]1C(=O)N[C@H](C2Cc3ccccc3C2)C(=O)N1[C@@H](C(=O)NC(C)(C)C)c1ccc(OC(F)(F)F)cc1")
85
>>> obs_value("CC(C)C[C@@H]1C(=O)N[C@H](C2Cc3ccccc3C2)C(=O)N1[C@@H](C(=O)NC(C)C)c1ccc(F)cc1")
421
>>> obs_value("CC(C)C[C@@H]1C(=O)N[C@H](C2Cc3ccccc3C2)C(=O)N1[C@@H](C(=O)NC(C)C)c1ccc(S(C)(=O)=O)cc1")
60

###

TEST_METHOD_NOTES: Per oral administration of 5 mg/Kg of dose required for measuring Area under concentration of curve in rat
Format: ADME
MEASUREMENT_PARAMETERS: in vivo
So basically: is AUC under 100 ng·h/mL? Then 1. Not under? Then -1.

>>> group_label("CC(=O)Nc1ccc([C@H](C(=O)NC(C)(C)C)N2C(=O)[C@@H](C3Cc4ccccc4C3)NC(=O)[C@H]2CC(C)C)cc1")
1
>>> group_label("CC(C)C[C@@H]1C(=O)N[C@H](C2Cc3ccccc3C2)C(=O)N1[C@@H](C(=O)NC(C)C)c1ccc(N(C)C)cc1")
-1
>>> group_label("CC(C)C[C@@H]1C(=O)N[C@H](C2Cc3ccccc3C2)C(=O)N1[C@@H](C(=O)NC(C)C)c1ccc(C(N)=O)cc1")
1
>>> group_label("CC(C)C[C@@H]1C(=O)N[C@H](C2Cc3ccccc3C2)C(=O)N1[C@@H](C(=O)NC(C)C)c1ccccc1")
-1
>>> group_label("CC(C)C[C@@H]1C(=O)N[C@H](C2Cc3ccccc3C2)C(=O)N1[C@@H](C(=O)NC(C)C)c1ccc(C(F)(F)F)cc1")
-1

###

Entries with reported Ki on Vasopressin V2 receptor (Homo sapiens, UniProt P30518)
Sequence (P30518 whole entry): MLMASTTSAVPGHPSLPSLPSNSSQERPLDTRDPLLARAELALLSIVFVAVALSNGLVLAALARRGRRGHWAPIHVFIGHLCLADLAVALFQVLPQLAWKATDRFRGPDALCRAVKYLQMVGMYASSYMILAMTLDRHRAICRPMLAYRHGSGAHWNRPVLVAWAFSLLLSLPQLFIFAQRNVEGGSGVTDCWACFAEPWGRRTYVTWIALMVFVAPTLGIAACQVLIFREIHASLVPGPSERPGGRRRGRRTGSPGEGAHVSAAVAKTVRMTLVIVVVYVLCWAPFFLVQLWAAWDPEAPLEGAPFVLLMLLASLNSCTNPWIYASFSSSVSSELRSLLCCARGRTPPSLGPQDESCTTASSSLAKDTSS
EXPERIMENTAL_ENDPOINT: Ki

>>> obs_value("CC(C)C[C@@H]1C(=O)N[C@H](C2Cc3ccccc3C2)C(=O)N1[C@@H](C(=O)NC(C)C)c1ccc(F)cc1")
"> 1.26 µM"
>>> obs_value("CC(C)C[C@@H]1C(=O)N[C@H](C2Cc3ccccc3C2)C(=O)N1[C@@H](C(=O)NC(C)C)c1ccc(N(C)C)cc1")
"> 79.4 µM"

###

TEST_METHOD_NOTES: Plasma clearance in rat
MEASUREMENT_PARAMETERS: in vivo
So basically: is CL under 2 L/h/kg? Then 1. Not under? Then -1.

>>> group_label("CC(C)C[C@@H]1C(=O)N[C@H](C2Cc3ccccc3C2)C(=O)N1[C@@H](C(=O)NC(C)C)c1ccc(S(C)(=O)=O)cc1")
1
>>> group_label("CC(C)C[C@@H]1C(=O)N[C@H](C2Cc3ccccc3C2)C(=O)N1[C@@H](C(=O)NC(C)C)c1ccc(F)cc1")
1
>>> group_label("CC(C)C[C@@H]1C(=O)N[C@H](C2Cc3ccccc3C2)C(=O)N1[C@@H](C(=O)NC(C)(C)C)c1ccc(Cl)cc1")
-1
>>> group_label("CC(C)C[C@@H]1C(=O)N[C@H](C2Cc3ccccc3C2)C(=O)N1[C@@H](C(=O)NC(C)C)c1ccccc1")
1
>>> group_label("CC(C)C[C@@H]1C(=O)N[C@H](C2Cc3ccccc3C2)C(=O)N1[C@@H](C(=O)NC(C)C)c1ccc(N(C)C)cc1")
-1
>>> group_label("Cc1ccc([C@H](C(=O)NC(C)C)N2C(=O)[C@@H](C3Cc4ccccc4C3)NC(=O)[C@H]2CC(C)C)cc1")
-1

Source listed as ChEMBL document CHEMBL1140377.
